Each recorded value in this set is attributed to patent US20250250357A1.

ASSAYED_TARGET: T1, human MSLN-R3 protein (human, UniProt Q13421 487-598)
T1 construct: also called hMSLN-R3
T1 sequence (Q13421 495-606, form in doubt): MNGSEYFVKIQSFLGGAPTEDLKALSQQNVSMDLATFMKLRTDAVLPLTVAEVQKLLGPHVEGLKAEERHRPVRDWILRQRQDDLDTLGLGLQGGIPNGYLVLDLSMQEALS
EXPERIMENT_DESCRIPTION: ELISA on coated antigen, antibody 0.1 nM
Form field: OD450 (one value per entry).
Give a bare numeral; the unit OD450 is implied.

// returns reported OD450 for input F7.33.24-H4 (scFv, not shown: small tags and cut ends, also called S009-F7.33.24 humanized antibody VH1a + VL1) scFv: EVQLVQSGAEVKKPGASVKVSCKASGYTFTSYWMHWVRQAPGQRLEWMGNVNPSSGGSNYNEKFKNRVTITVDKSASTAYMELSSLRSEDTAVYYCAPHYIGSRPGFAYWGQGTLVTVSSGGGGSGGGGSGGGGSDIVMTQSPDSLAVSLGERATINCKASQNVGTNIAWYQQKPGQSPKALIYSASYRYSGVPDRFSGSGSGTDFTLTISSLQAEDVAVYYCQQYNSYPLTFGGGTKVEIK
0.07

Tell me the measured OD450 of F7.33.24-H9 (scFv, not shown: small tags and cut ends, also called S009-F7.33.24 humanized antibody VH2 + VL3) scFv: EVQLVQSGAEVKKPGASVKVSCKASGYTFTSYWMHWVRQAPGQGLEWMGNVNPSNGGSNYNEKFKNRVTITVDKSASTAYMELSSLRSEDTAVYYCAPHYIGSRPGFAYWGQGTLVTVSSGGGGSGGGGSGGGGSDIVMTQTPLSLSVTPGQPASISCKASQNVGTNIAWYQQKPGQSPQALIYSASYRYSGVPDRFSGSGSGTDFTLKISRVEAEDVGVYYCQQYNSYPLTFGGGTKVEIK , please.
0.11

Reported OD450 for F7.33.24-H3 (scFv, not shown: small tags and cut ends, also called S009-F7.33.24 humanized antibody VH1 + VL3) scFv: EVQLVQSGAEVKKPGASVKVSCKASGYTFTSYWMHWVRQAPGQRLEWMGNVNPSNGGSNYNEKFKNRVTITVDKSASTAYMELSSLRSEDTAVYYCAPHYIGSRPGFAYWGQGTLVTVSSGGGGSGGGGSGGGGSDIVMTQTPLSLSVTPGQPASISCKASQNVGTNIAWYQQKPGQSPQALIYSASYRYSGVPDRFSGSGSGTDFTLKISRVEAEDVGVYYCQQYNSYPLTFGGGTKVEIK : what is it?
0.13

Quick one: OD450 of Tab110 (scFv, not shown: small tags and cut ends, also called YP218 VH-(G4S)3-VL-his antibody; positive control) scFv: QQQLEESGGGLVKPEGSLTLTCKASGFDLGFYFYACWVRQAPGKGLEWIACIYTAGSGSTYYASWAKGRFTISKASSTTVTLQMTSLAAADTATYFCARSTANTRSTYYLNLWGPGTLVTVSSGGGGSGGGGSGGGGSDVVMTQTPASVSEPVGGTVTIKCQASQRISSYLSWYQQKPGQRPKLLIFGASTLASGVPSRFKGSGSGTEYTLTISDLECADAATYYCQSYAYFDSNNWHAFGGGTEVVV ?
0.04

# lookup: OD450 of F7.33.24-H5 (scFv, not shown: small tags and cut ends, also called S009-F7.33.24 humanized antibody VH1a + VL2) scFv: EVQLVQSGAEVKKPGASVKVSCKASGYTFTSYWMHWVRQAPGQRLEWMGNVNPSSGGSNYNEKFKNRVTITVDKSASTAYMELSSLRSEDTAVYYCAPHYIGSRPGFAYWGQGTLVTVSSGGGGSGGGGSGGGGSDIVMTQTPLSLSVTPGQPASISCKASQNVGTNIAWYLQKPGQSPQALIYSASYRYSGVPDRFSGSGSGTDFTLKISRVEAEDVGVYYCQQYNSYPLTFGGGTKVEIK
0.06

Need OD450 of F7.33.24-H12 (scFv, not shown: small tags and cut ends, also called S009-F7.33.24 humanized antibody VH2a + VL3) scFv: EVQLVQSGAEVKKPGASVKVSCKASGYTFTSYWMHWVRQAPGQGLEWMGNVNPSNAGSNYNEKFKNRVTITVDKSASTAYMELSSLRSEDTAVYYCAPHYIGSRPGFAYWGQGTLVTVSSGGGGSGGGGSGGGGSDIVMTQTPLSLSVTPGQPASISCKASQNVGTNIAWYQQKPGQSPQALIYSASYRYSGVPDRFSGSGSGTDFTLKISRVEAEDVGVYYCQQYNSYPLTFGGGTKVEIK , thanks.
0.09

Entry under review: F7.33.24-H6 (scFv, not shown: small tags and cut ends, also called S009-F7.33.24 humanized antibody VH1a + VL3) scFv: EVQLVQSGAEVKKPGASVKVSCKASGYTFTSYWMHWVRQAPGQRLEWMGNVNPSSGGSNYNEKFKNRVTITVDKSASTAYMELSSLRSEDTAVYYCAPHYIGSRPGFAYWGQGTLVTVSSGGGGSGGGGSGGGGSDIVMTQTPLSLSVTPGQPASISCKASQNVGTNIAWYQQKPGQSPQALIYSASYRYSGVPDRFSGSGSGTDFTLKISRVEAEDVGVYYCQQYNSYPLTFGGGTKVEIK . Reported OD450?
0.07

Entry under review: F7.33.24-H10 (scFv, not shown: small tags and cut ends, also called S009-F7.33.24 humanized antibody VH2a + VL1) scFv: EVQLVQSGAEVKKPGASVKVSCKASGYTFTSYWMHWVRQAPGQGLEWMGNVNPSNAGSNYNEKFKNRVTITVDKSASTAYMELSSLRSEDTAVYYCAPHYIGSRPGFAYWGQGTLVTVSSGGGGSGGGGSGGGGSDIVMTQSPDSLAVSLGERATINCKASQNVGTNIAWYQQKPGQSPKALIYSASYRYSGVPDRFSGSGSGTDFTLTISSLQAEDVAVYYCQQYNSYPLTFGGGTKVEIK . Reported OD450?
0.08

Param item = F7.33.24-H2 (scFv, not shown: small tags and cut ends, also called S009-F7.33.24 humanized antibody VH1 + VL2) scFv: EVQLVQSGAEVKKPGASVKVSCKASGYTFTSYWMHWVRQAPGQRLEWMGNVNPSNGGSNYNEKFKNRVTITVDKSASTAYMELSSLRSEDTAVYYCAPHYIGSRPGFAYWGQGTLVTVSSGGGGSGGGGSGGGGSDIVMTQTPLSLSVTPGQPASISCKASQNVGTNIAWYLQKPGQSPQALIYSASYRYSGVPDRFSGSGSGTDFTLKISRVEAEDVGVYYCQQYNSYPLTFGGGTKVEIK ; retrieve measured OD450.
0.06

Given the entry F7.33.24-H7 (scFv, not shown: small tags and cut ends, also called S009-F7.33.24 humanized antibody VH2 + VL1) scFv: EVQLVQSGAEVKKPGASVKVSCKASGYTFTSYWMHWVRQAPGQGLEWMGNVNPSNGGSNYNEKFKNRVTITVDKSASTAYMELSSLRSEDTAVYYCAPHYIGSRPGFAYWGQGTLVTVSSGGGGSGGGGSGGGGSDIVMTQSPDSLAVSLGERATINCKASQNVGTNIAWYQQKPGQSPKALIYSASYRYSGVPDRFSGSGSGTDFTLTISSLQAEDVAVYYCQQYNSYPLTFGGGTKVEIK , report its measured OD450.
0.06
